Experiment: Inhibition of fructose-1,6-bisphosphatase in monkey hepatocytes assessed as glucose production
Type: cell-based
Details: Macaca mulatta, Hepatocyte
endpoint: log10 IC50 (log10 of the value in µM)
Reminder: these figures are log10 of reported IC50, in µM before transformation.

Solved entries:
Query block: Look up log10 IC50 for this compound: `Cc1cc(OC[P@@]2(=O)OCC[C@@H](c3cccc(Cl)c3)O2)c2c(c1C)Cc1scnc1-2`
Result block: 1.18

Query block: Look up log10 IC50 for this compound: Cc1cc(OC[P@@]2(=O)OCC[C@@H](c3cccnc3)O2)c2c(c1C)Cc1scnc1-2 (racemic)
Result block: 0.94

Query block: Look up log10 IC50 for this compound: Cc1cc(OC[P@@]2(=O)OCC[C@@H](c3ccc(Cl)cc3)O2)c2c(c1C)Cc1scnc1-2 (racemic)
Result block: 1.82

Query block: Look up log10 IC50 for this compound: Cc1cc(OC[P@@]2(=O)OCC[C@@H](c3ccncc3)O2)c2c(c1C)Cc1scnc1-2 (racemic)
Result block: 1.61

Query block: Look up log10 IC50 for this compound: `CCOC(=O)[C@H](C)NP(=O)(COc1cc(C)c(C)c2c1-c1ncsc1C2)N[C@@H](C)C(=O)OCC`
Result block: 0.83

Query block: Look up log10 IC50 for this compound: `Cc1cc(OC[P@@]2(=O)OCC[C@@H](c3cccnc3C)O2)c2c(c1C)Cc1scnc1-2`
Result block: 0.60

Query block: Look up log10 IC50 for this compound: Cc1cc(OC[P@@]2(=O)OCC[C@@H](c3ccccn3)O2)c2c(c1C)Cc1scnc1-2 (racemic)
Result block: 1.34

Continuing:
Query block: Look up log10 IC50 for this compound: Cc1cc(OC[P@]2(=O)OCC[C@H](c3cccnc3C)O2)c2c(c1C)Cc1scnc1-2 (racemic)
Result block: 1.04

----------
Assay read-out IC50; system under study: UniProt:P08684.
Sequence (P08684 whole entry): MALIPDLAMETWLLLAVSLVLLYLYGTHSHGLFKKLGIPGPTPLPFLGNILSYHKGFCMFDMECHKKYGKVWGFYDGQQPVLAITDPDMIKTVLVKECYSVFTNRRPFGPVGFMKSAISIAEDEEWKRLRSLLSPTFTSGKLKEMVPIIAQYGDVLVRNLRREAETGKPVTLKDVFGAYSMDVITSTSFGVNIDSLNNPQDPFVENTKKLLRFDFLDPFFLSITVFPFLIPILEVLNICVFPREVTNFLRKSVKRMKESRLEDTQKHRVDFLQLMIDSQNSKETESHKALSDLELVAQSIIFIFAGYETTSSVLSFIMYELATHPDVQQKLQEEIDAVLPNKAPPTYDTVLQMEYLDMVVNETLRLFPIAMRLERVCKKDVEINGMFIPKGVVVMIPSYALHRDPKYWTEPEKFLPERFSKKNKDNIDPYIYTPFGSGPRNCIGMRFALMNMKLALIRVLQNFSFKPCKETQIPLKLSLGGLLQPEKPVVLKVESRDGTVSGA
Respond with the bare value in nM.

Query block: Look up IC50 for this compound: `CCOC(=O)[C@H](C)NP(=O)(COc1cc(C)c(C)c2c1-c1ncsc1C2)N[C@@H](C)C(=O)OCC`
Result block: 580

Now examine the next entry.
Query block: Look up IC50 for this compound: Cc1cc(OC[P@@]2(=O)OCC[C@@H](c3cccnc3)O2)c2c(c1C)Cc1scnc1-2 (racemic)
Result block: 2900

----------
Assay: Solubility at pH 6.8
Format: physicochemical
Conditions: buffer
satisfied means recorded solubility is 70 µg/mL or above; not satisfied means it is below 70 µg/mL.

Query block: API: above_or_equal(metric=solubility, cutoff=70 µg/mL) for item Cc1cc(OC[P@@]2(=O)OCC[C@@H](c3ccncc3)O2)c2c(c1C)Cc1scnc1-2 (racemic)
Result block: not satisfied

Continuing:
Query block: API: above_or_equal(metric=solubility, cutoff=70 µg/mL) for item Cc1cc(OC[P@]2(=O)OCC[C@H](c3cccnc3C)O2)c2c(c1C)Cc1scnc1-2 (racemic)
Result block: satisfied

Query block: API: above_or_equal(metric=solubility, cutoff=70 µg/mL) for item COc1cccc([C@@H]2CCO[P@](=O)(COc3cc(C)c(C)c4c3-c3ncsc3C4)O2)c1 (racemic)
Result block: not satisfied

Query block: API: above_or_equal(metric=solubility, cutoff=70 µg/mL) for item `CCOC(=O)[C@H](C)NP(=O)(COc1cc(C)c(C)c2c1-c1ncsc1C2)N[C@@H](C)C(=O)OCC`
Result block: not satisfied

Query block: API: above_or_equal(metric=solubility, cutoff=70 µg/mL) for item Cc1ccncc1[C@@H]1CCO[P@](=O)(COc2cc(C)c(C)c3c2-c2ncsc2C3)O1 (racemic)
Result block: satisfied

Query block: API: above_or_equal(metric=solubility, cutoff=70 µg/mL) for item Cc1cc(OC[P@@]2(=O)OCC[C@@H](c3cccnc3)O2)c2c(c1C)Cc1scnc1-2 (racemic)
Result block: satisfied

Query block: API: above_or_equal(metric=solubility, cutoff=70 µg/mL) for item `Cc1cc(OC[P@]2(=O)OCC[C@@H](c3cccc(Cl)c3)O2)c2c(c1C)Cc1scnc1-2`
Result block: not satisfied

Query block: API: above_or_equal(metric=solubility, cutoff=70 µg/mL) for item Cc1cc(OC[P@@]2(=O)OCC[C@@H](c3ccccn3)O2)c2c(c1C)Cc1scnc1-2 (racemic)
Result block: satisfied
